test: 2 h pharmacokinetic study with or without elacridar in wild-type and Abcb1a/1b;Abcg2-/- mice; assay type: in vivo; conditions: FVB (Abcb1a/1b;Abcg2-/-), mouse, liver; male Abcb1a/1b;Abcg2-/- mice, vehicle, 10 mg/kg oral, 2 h; read-out: CLiver
observationType: concentration at 2 h (ng/g)
Reply numerically in ng/g, unit not repeated.

State, in one line, measured concentration at 2 h of COc1ccc(CN2C3CC2CN(c2ccc(-c4cc(OCC(C)(C)O)cn5ncc(C#N)c45)cn2)C3)cn1 [selpercatinib]
21400

----------
experiment: 2 h pharmacokinetic study with or without elacridar in wild-type and Abcb1a/1b;Abcg2-/- mice; type: in vivo; settings: male, wild-type (>99% FVB genetic background), mouse, plasma, po, 10 mg/kg, male wild-type mice, elacridar 50 mg/kg oral 2 h prior, 10 mg/kg oral, 2 h
observationType: Tmax

Name the recorded Tmax of the item COc1ccc(CN2C3CC2CN(c2ccc(-c4cc(OCC(C)(C)O)cn5ncc(C#N)c45)cn2)C3)cn1 [selpercatinib] in your answer.
30 min

----------
assay: Oral selpercatinib pharmacokinetics in mice, summarised over the studies; assay type: in vivo; details: FVB (wild-type), mouse, plasma, 10 mg/kg oral, average
observationType: Cmax

Answer with the recorded Cmax for the compound listed here: COc1ccc(CN2C3CC2CN(c2ccc(-c4cc(OCC(C)(C)O)cn5ncc(C#N)c45)cn2)C3)cn1
~8000 ng/mL

----------
test: 4 h pharmacokinetic pilot study in wild-type, Abcb1a/1b;Abcg2-/- and Slco1a/1b-/- mice; assay type: in vivo; settings: male, FVB background, Slco1a/1b-/-, mouse, in vivo, po, 10 mg/kg, CSIC (small intestine contents concentration)
observationType: concentration at 4 h (ng/g)
Report only the number, with the unit ng/g understood.

Name the recorded concentration at 4 h of the compound listed here: COc1ccc(CN2C3CC2CN(c2ccc(-c4cc(OCC(C)(C)O)cn5ncc(C#N)c45)cn2)C3)cn1
141000

----------
assay: 8 h pharmacokinetic study in wild-type, Cyp3a-/- and Cyp3aXAV mice; conditions: female, Cyp3a-/- (>99% FVB genetic background), mouse, in vivo, po, 10 mg/kg, CLiver
observationType: concentration at 8 h

// fetch concentration at 8 h given entry COc1ccc(CN2C3CC2CN(c2ccc(-c4cc(OCC(C)(C)O)cn5ncc(C#N)c45)cn2)C3)cn1
7900 ng/g

----------
experiment: 2 h pharmacokinetic study with or without elacridar in wild-type and Abcb1a/1b;Abcg2-/- mice; assay type: in vivo; settings: male, wild-type (>99% FVB genetic background), mouse, plasma, po, 10 mg/kg, male wild-type mice, elacridar 50 mg/kg oral 2 h prior, 10 mg/kg oral, 2 h; read-out: AUC0–2h
observationType: AUC(0-t)

Supply AUC(0-t) value. Item: COc1ccc(CN2C3CC2CN(c2ccc(-c4cc(OCC(C)(C)O)cn5ncc(C#N)c45)cn2)C3)cn1
12900 ng·h/mL

----------
Assay: 8 h pharmacokinetic study in wild-type, Cyp3a-/- and Cyp3aXAV mice
Details: female, Cyp3aXAV (>99% FVB genetic background), mouse, in vivo, po, 10 mg/kg, CSI (small intestine tissue concentration)
Method: Many drugs and prodrugs are metabolized by CYP3A, which can therefore restrict their oral exposure. Mice were housed and handled according to institutional guidelines complying with Dutch and EU legislation. All experimental animal protocols were evaluated and approved by the institutional animal care and use committee. […] Pharmacokinetic parameters were calculated by noncompartmental methods using the PK solver software. […]
observationType: concentration at 8 h
Number first, unit second: that is the form wanted.

Please list concentration at 8 h recorded for the compound COc1ccc(CN2C3CC2CN(c2ccc(-c4cc(OCC(C)(C)O)cn5ncc(C#N)c45)cn2)C3)cn1
5030 ng/g
